- Tested on: A549/ATCC NSCLC
- experiment: NCI-60 one-dose screen, 48 h (100 = growth as untreated, 0 = no growth, -100 = all killed)
- assayConditions: 10 µM unless noted
About 83,000 compounds went through this panel and 20% of them were active in at least one assay; those are over-represented in the sample as a whole.
What growth was measured for each of the following?
Answers are plain numbers, in %.

Would you please look over these solved cases?
[[record]]
compound = "CCCC(=O)OCC(COC(=O)CCC)OC(=O)CCC"
testedtarget = "A549/ATCC NSCLC"
measuredattribute = "growth"
unitspec = "%"
assayresult = 94.9

[[record]]
compound = "COc1cc2c(cc1O)C(=O)CCCC2"
testedtarget = "A549/ATCC NSCLC"
measuredattribute = "growth"
unitspec = "%"
assayresult = 110

[[record]]
compound = "COC(=O)c1nc(=S)[nH]c(C(=O)OC)c1C(=O)c1ccccc1"
testedtarget = "A549/ATCC NSCLC"
measuredattribute = "growth"
unitspec = "%"
assayresult = 112

[[record]]
compound = "COc1cc(C2c3cc4c(cc3C(OC(=O)C[n+]3ccccc3)C3COC(=O)C23)OCO4)cc(OC)c1OC (stereo unspecified)"
testedtarget = "A549/ATCC NSCLC"
measuredattribute = "growth"
unitspec = "%"
assayresult = 7.1

[[record]]
compound = "CS(=O)(=O)c1nsc(N)n1"
testedtarget = "A549/ATCC NSCLC"
measuredattribute = "growth"
unitspec = "%"
assayresult = 87.7


// next item, growth requested
Ask: // fetch growth given entry COC(=O)c1nc(N)nc(C(=O)OC)c1C(=O)c1ccc(F)cc1
Reply: 114
